System: HEK-293T
method_summary: Multiplex assay against HEK293T
Format: toxicity, cell-based
condition_info: human, 24 h, 10 µM, compound concentration 10 uM, replicate 2
Cut-off 80% on Population Mitotic Cells (%): below means Satisfied, at or above means Not satisfied.

Example cases with answers are listed next.
compound=Cc1cn(-c2cc(NC(=O)c3ccc4c(c3)CN(c3cncnc3)C[C@@H]4C)cc(C(F)(F)F)c2)cn1 category="Not satisfied"
compound=CNC(=O)c1cc(Oc2ccc(NC(=O)Nc3cc(C(C)(C)C)nn3-c3ccc4ncccc4c3)c(F)c2)ccn1 category=Satisfied
compound="CCC(=O)O[C@]1(C(=O)SCF)[C@H](C)C[C@H]2[C@@H]3C[C@H](F)C4=CC(=O)C=C[C@]4(C)[C@@]3(F)[C@@H](O)C[C@@]21C [FLUTICASONE PROPIONATE]" category=Satisfied
compound=COc1cc2c(Nc3ccc(NC(=O)c4ccccc4)cc3)ncnc2cc1OCCCN1CCOCC1 category="Not satisfied"
compound="Cc1nc(Cc2cccc(C(F)(F)F)c2)sc1-c1ccc(C(N)=O)nc1 [TP-024n]" category=Satisfied

(Q) Input CCCn1c(=O)c2[nH]c(C34CC5CC(CC3C5)C4)nc2n(CCC)c1=O ; condition: Population Mitotic Cells (%) strictly below 80%. Does it hold?
(A) Satisfied

(Q) Input O=C(O)c1ccc2cc(-c3ccc(O)c(C45CC6CC(CC(C6)C4)C5)c3)ccc2c1 ; condition: Population Mitotic Cells (%) strictly below 80%. Does it hold?
(A) Satisfied

(Q) Input CN(C)CCOc1ccc(-c2nc(-c3ccncc3)c(-c3ccc4c(c3)CC/C4=N\O)[nH]2)cc1 ; condition: Population Mitotic Cells (%) strictly below 80%. Does it hold?
(A) Not satisfied

(Q) Input CCOc1cc(N2CCC(O)CC2)ccc1Nc1ncc2c(n1)N(C1CCCC1)CCC(=O)N2C ; condition: Population Mitotic Cells (%) strictly below 80%. Does it hold?
(A) Not satisfied

(Q) Input c1ccc2oc(-c3csc(C4CCN(Cc5nc6ncccc6[nH]5)CC4)n3)cc2c1 ; condition: Population Mitotic Cells (%) strictly below 80%. Does it hold?
(A) Not satisfied

----------
Test system: Fibroblast
method_summary: Multiplex assay against human fibroblast
Format: toxicity, cell-based
condition_info: 48 h, 10 µM, compound concentration 10 uM, replicate 1
Categories are assigned from the measured Population Hoechst High Intensity Objects (%) using these intervals: lower level: < 20%; middle level: ≥ 20% and < 50%; upper level: ≥ 50%

Example cases with answers are listed next.
compound=COc1ccc(NS(=O)(=O)c2sc3ccc(Cl)cc3c2C)cc1N1CCNCC1.Cl category="middle level"
compound="CCC(=O)O[C@]1(C(=O)SCF)[C@H](C)C[C@H]2[C@@H]3C[C@H](F)C4=CC(=O)C=C[C@]4(C)[C@@]3(F)[C@@H](O)C[C@@]21C [FLUTICASONE PROPIONATE]" category="lower level"
compound=Cc1cc2c(cc1N1C(=O)c3cccc4c(CCCO)ccc(c34)C1=O)n(C)c(=O)n2C category="lower level"
compound=COc1cc(N2CCC(N(C)C)CC2)ccc1Nc1ncc(Cl)c(Nc2ccccc2P(C)(C)=O)n1 category="middle level"
compound="Cc1nc(Cc2cccc(C(F)(F)F)c2)sc1-c1ccc(C(N)=O)nc1 [TP-024n]" category="lower level"

(Q) Which bin, given its Population Hoechst High Intensity Objects (%), does Cl.Cl.Nc1ncnc2c1c(-c1cccc(OCc3ccccc3)c1)cn2[C@H]1C[C@@H](CN2CCC2)C1 occupy?
(A) middle level

(Q) Which bin, given its Population Hoechst High Intensity Objects (%), does CC(C)Oc1ccc(C(=O)N[C@H](CNC(=O)CN(C)C)Cc2ccc(-c3cn4cccc([C@H](C)O)c4n3)cc2)cc1Cl [GSK-923295A] occupy?
(A) middle level

(Q) Which bin, given its Population Hoechst High Intensity Objects (%), does CC(C)N1CCC(C)(C)c2cc(C#Cc3ccc(C(=O)O)cc3)ccc21 occupy?
(A) upper level

(Q) Which bin, given its Population Hoechst High Intensity Objects (%), does CNc1oc(-c2cccc3ccccc23)nc1C#N occupy?
(A) upper level

(Q) Which bin, given its Population Hoechst High Intensity Objects (%), does CC(=O)c1cc(-c2cc(C(=O)NC3CC3)ccc2C)c2ncccn12 occupy?
(A) lower level
